# System Under Test: BCRP (Homo sapiens (Human))
# Sequence (Q9UNQ0 whole entry): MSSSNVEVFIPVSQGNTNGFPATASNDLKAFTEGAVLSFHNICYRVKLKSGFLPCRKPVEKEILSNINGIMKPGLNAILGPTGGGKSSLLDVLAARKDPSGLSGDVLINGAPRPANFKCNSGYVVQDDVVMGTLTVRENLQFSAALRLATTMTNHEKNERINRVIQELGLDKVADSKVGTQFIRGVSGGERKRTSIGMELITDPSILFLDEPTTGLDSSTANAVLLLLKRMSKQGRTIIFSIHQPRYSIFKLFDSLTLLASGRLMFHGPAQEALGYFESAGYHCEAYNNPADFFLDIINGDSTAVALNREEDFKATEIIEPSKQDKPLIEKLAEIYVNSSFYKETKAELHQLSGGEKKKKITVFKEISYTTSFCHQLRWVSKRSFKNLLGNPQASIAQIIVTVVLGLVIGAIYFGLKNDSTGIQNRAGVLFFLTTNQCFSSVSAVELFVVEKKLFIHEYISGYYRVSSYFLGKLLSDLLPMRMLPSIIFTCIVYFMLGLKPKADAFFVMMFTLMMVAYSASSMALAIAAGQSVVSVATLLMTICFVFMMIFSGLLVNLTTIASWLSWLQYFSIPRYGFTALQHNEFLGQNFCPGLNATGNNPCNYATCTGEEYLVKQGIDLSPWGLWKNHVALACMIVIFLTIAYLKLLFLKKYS
# Assay Procedure: Caco-2 BCRP assessment
# Format: in vitro ADME
# Experimental Context: Caco-2 cells, 1 μM, efflux ratio -/+ novobiocin 30 μM; >2 = BCRP substrate
Classification field: enter criterion met for BCRP ER values not below 1, criterion not met for values below it.

Reported BCRP ER reaches at least 1 for Cc1cc(Nc2ncnc3ccc(NC4=NC(C)(C)CO4)cc23)ccc1Oc1ccn2ncnc2c1 [Reference compound 3, reference compound] ?
criterion met

----------
# System Under Test: P-glycoprotein (Pgp) (Homo sapiens (Human), UniProt P08183)
# Sequence (P08183 whole entry): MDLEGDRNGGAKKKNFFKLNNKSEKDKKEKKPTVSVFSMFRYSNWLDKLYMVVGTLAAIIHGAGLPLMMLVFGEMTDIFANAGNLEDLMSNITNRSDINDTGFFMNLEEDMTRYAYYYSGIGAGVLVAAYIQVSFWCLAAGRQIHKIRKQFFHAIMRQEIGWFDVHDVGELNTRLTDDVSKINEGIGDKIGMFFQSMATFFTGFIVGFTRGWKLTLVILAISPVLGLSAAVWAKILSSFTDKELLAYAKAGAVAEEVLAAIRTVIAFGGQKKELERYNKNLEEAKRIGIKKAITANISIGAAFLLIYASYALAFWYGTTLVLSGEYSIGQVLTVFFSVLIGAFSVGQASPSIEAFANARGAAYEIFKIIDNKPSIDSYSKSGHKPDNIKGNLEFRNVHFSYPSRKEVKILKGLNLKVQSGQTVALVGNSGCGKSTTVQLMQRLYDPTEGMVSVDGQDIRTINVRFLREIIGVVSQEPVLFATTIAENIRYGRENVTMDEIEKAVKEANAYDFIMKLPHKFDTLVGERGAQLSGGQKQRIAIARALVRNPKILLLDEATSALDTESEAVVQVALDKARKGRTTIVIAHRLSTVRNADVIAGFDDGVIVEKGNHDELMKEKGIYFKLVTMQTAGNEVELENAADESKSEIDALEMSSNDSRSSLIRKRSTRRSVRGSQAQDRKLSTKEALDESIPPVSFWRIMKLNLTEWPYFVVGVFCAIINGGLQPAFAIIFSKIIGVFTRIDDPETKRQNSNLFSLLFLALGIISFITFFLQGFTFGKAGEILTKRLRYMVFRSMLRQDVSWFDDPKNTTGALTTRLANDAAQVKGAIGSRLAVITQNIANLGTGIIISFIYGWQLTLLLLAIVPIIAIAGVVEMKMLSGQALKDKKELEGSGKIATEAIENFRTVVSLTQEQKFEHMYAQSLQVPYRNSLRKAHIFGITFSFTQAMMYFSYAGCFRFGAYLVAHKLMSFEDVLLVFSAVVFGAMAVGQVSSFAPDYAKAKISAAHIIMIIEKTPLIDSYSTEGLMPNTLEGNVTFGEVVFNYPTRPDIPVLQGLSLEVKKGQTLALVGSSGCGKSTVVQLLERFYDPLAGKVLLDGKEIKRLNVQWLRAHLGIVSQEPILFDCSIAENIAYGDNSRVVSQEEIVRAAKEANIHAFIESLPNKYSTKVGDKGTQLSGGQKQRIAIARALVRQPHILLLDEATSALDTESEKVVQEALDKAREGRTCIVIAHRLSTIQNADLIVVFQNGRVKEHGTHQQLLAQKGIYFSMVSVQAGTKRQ
# Assay Procedure: MDCK-MDR1 Pgp assessment
# Format: in vitro ADME
# Experimental Context: dog; MDCK-MDR1 cells, 1 μM, 37° C. for 2 hours; read-out: PgpER
Endpoint Name: efflux ratio at 2 h, 1 μM

Recorded results for 5 compounds are shown here.
So what does the record say about efflux ratio at 2 h, 1 μM for `COc1ccc2ncnc(Nc3ccc(Oc4cc5ncnn5cn4)c(Cl)c3)c2c1O[C@@H]1CCN(C)CC1(F)F` ?
0.6

Can you share its efflux ratio at 2 h, 1 μM? I mean this compound: Cc1cc(Nc2ncnc3ccc(NC4=NC(C)(C)CO4)cc23)ccc1Oc1ccn2ncnc2c1 [Reference compound 3, reference compound]
23.8

Could you tell me which efflux ratio at 2 h, 1 μM is on file for `[2H]C([2H])([2H])Oc1ccc2ncnc(Nc3ccc(Oc4cc5ncnn5cn4)c(C)c3)c2c1O[C@@H]1CCN(C)CC1(F)F` ?
0.81

I am curious: what efflux ratio at 2 h, 1 μM value has been reported for `COc1ccc2ncnc(Nc3ccc(Oc4cc5ncnn5cn4)c(C)c3)c2c1O[C@@H]1CCN(C)CC1(F)F` ?
1.3

Item under review: CN1CCC(Oc2cccc3ncnc(Nc4ccc(NCc5ccccn5)c(Cl)c4)c23)CC1 [Reference compound 1, reference compound] . Reported efflux ratio at 2 h, 1 μM?
0.57

Now examine the next entry.
Bench note: what efflux ratio at 2 h, 1 μM did CCOc1cc2ncc(C#N)c(Nc3ccc(OCc4ccccn4)c(Cl)c3)c2cc1NC(=O)/C=C/CN(C)C [Reference compound 2, Neratinib, reference compound] show?
> 18.6

Provenance of the data: patent US11723908B2
